System: antibodies in sera from SARS patients (sera 1a, 1b, 2, 6, 37, 62, London, SARS-yellow, SARS-green)
Type: binding, human
Binding of serum 62 to linear peptides of protein X1 of SARS-CoV Urbani for assorted sequences
parameter: Binding of serum 62 to linear peptides of protein X1 of SARS-CoV Urbani

sequence record	numeric readout
ENATFFIFNKLVKDP	0.4
NVQIHTIDGSSGVAN	0.6
RWQLALYKGFQFICN	0.5
LYLYALIYFLQCINA	0.5
ASLPFGWLVIGVAFL	0.6
LYKGFQFICNLLLLF	0.4
QITTDTGIENATFFI	0.4
ITTDTGIENATFFIF	0.5
QCINACRIIMRCWLC	0.7
YNSVTDTIVVTEGDG	0.5
IGVAFLAVFQSATKI	0.6

* * *

Binding of serum SARS-green to looped/cyclic peptides of protein X1 of SARS-CoV Urbani for assorted sequences
System: antibodies in sera from SARS patients (sera 1a, 1b, 2, 6, 37, 62, London, SARS-yellow, SARS-green)
Format: binding, human
parameter: Binding of serum SARS-green to looped/cyclic peptides of protein X1 of SARS-CoV Urbani

sequence record	numeric readout
DTIVVTEGDGISTPK	0.1
QIHTIDGSSGVANPA	0.2
YVVVHGYFTEVYYQL	0.2
ITTDTGIENATFFIF	0.6
ENATFFIFNKLVKDP	0.2
VKDYVVVHGYFTEVY	0.2
PPNVQIHTIDGSSGV	0.4
ESTQITTDTGIENAT	0.1
IHTIDGSSGVANPAM	0.3
GIENATFFIFNKLVK	0.2
CIPYNSVTDTIVVTE	0.3
SVTDTIVVTEGDGIS	0.2
NVQIHTIDGSSGVAN	0.2

* * *

Binding of serum 2 to linear peptides of protein N of SARS-CoV Urbani for assorted sequences
Tested on: antibodies in sera from SARS patients (sera 1a, 1b, 2, 6, 37, 62, London, SARS-yellow, SARS-green)
Type: binding, human
parameter: Binding of serum 2 to linear peptides of protein N of SARS-CoV Urbani

sequence record	result
VWVATEGALNTPKDH	0.2
KTDEAQPLPQRQKKQ	0.3
ILLNKHIDAYKTFPP	0.2
FSRQLQNSMSGASAD	0.1
TNSGPDDQIGYYRRA	0.2
SGPDDQIGYYRRATR	0.2
EVTPSGTWLTYHGAI	0.1
NTNSGPDDQIGYYRR	0.2
IVWVATEGALNTPKD	0.2
ADMDDFSRQLQNSMS	0.2
PQGLPNNTASWFTAL	0.2
PNNTASWFTALTQHG	0.2
TPKDHIGTRNPNNNA	0.3
NNNAATVLQLPQGTT	0.2
GPDDQIGYYRRATRR	0.2
FAPSASAFFGMSRIG	0.2
KQRRPQGLPNNTASW	0.2
VATEGALNTPKDHIG	0.2
PDDQIGYYRRATRRV	0.2
IGYYRRATRRVRGGD	0.1
FTALTQHGKEELRFP	0.3
EGIVWVATEGALNTP	0.3
SLPYGANKEGIVWVA	0.2
IGMEVTPSGTWLTYH	0.1
GGRNGARPKQRRPQG	0.3
LTQHGKEELRFPRGQ	0.3
QSNQRSAPRITFGGP	0.2
ATRRVRGGDGKMKEL	0.3
WVATEGALNTPKDHI	0.3
KHWPQIAQFAPSASA	0.3
QGVPINTNSGPDDQI	0.2
GTGPEASLPYGANKE	0.3
GARPKQRRPQGLPNN	0.2
IGTRNPNNNAATVLQ	0.4
ALNTPKDHIGTRNPN	0.3
HGKEELRFPRGQGVP	0.3
GPEASLPYGANKEGI	0.3
LPYGANKEGIVWVAT	0.3

* * *

Test system: antibodies in sera from SARS patients (sera 1a, 1b, 2, 6, 37, 62, London, SARS-yellow, SARS-green)
Assay type: binding, human
Set-up: unit not given here
Binding of serum 6 to linear peptides of protein N of SARS-CoV Urbani for assorted sequences
parameter: Binding of serum 6 to linear peptides of protein N of SARS-CoV Urbani

sequence record	numeric readout
WLTYHGAIKLDDKDP	0.2
VWVATEGALNTPKDH	0.2
VTPSGTWLTYHGAIK	0.2
RFPRGQGVPINTNSG	0.1
KTDEAQPLPQRQKKQ	0.3
AIKLDDKDPQFKDNV	0.2
EVTPSGTWLTYHGAI	0.2
TPSGTWLTYHGAIKL	0.2
QSNQRSAPRITFGGP	0.1
IAQFAPSASAFFGMS	0.1
EGALNTPKDHIGTRN	0.2
LPYGANKEGIVWVAT	0.2
KEGIVWVATEGALNT	0.2
NNTASWFTALTQHGK	0.1
KMKELSPRWYFYYLG	0.1
QRSAPRITFGGPTDS	0.1
PNNTASWFTALTQHG	0.2
GGDGKMKELSPRWYF	0.2
TFPPTEPKKDKKKKT	0.3
IGYYRRATRRVRGGD	0.2
RQGTDYKHWPQIAQF	0.2
YRRATRRVRGGDGKM	0.3
SDNGPQSNQRSAPRI	0.2
PQGLPNNTASWFTAL	0.1

* * *

Test system: rabbit serum obtained by immunizing a rabbit with the SARS-CoV strain Frankfurt 1
Assay type: binding
Parameters: unit not given here
Binding of a rabbit serum to looped peptides for assorted sequences
parameter: Binding of a rabbit serum to looped peptides

sequence record	numeric readout
VVILRIGTQVLKTMS	0.4
VKDYVVVHGYFTEVY	0.6
YTQSTALQELLIQQW	0.3
QLESTQITTDTGIEN	0.6
YKGFQFICNLLLLFV	0.0
AQFLYLYALIYFLQC	0.5
NKLVKDPPNVQIHTI	0.6
YNSVTDTIVVTEGDG	0.5
YVYSRVKNLNSSEGV	0.5
MMSRRRLLACLCKHK	0.3
VKDPPNVQIHTIDGS	0.5
AFLAVFQSATKIIAL	0.8
HKKVSTNLCTHSFRK	0.1
KGFQFICNLLLLFVT	0.5
QLSLLKVTAFQHQNS	0.5
ITTDTGIENATFFIF	0.6
KEDYQIGGYSEDRHS	0.5
GFQFIGNLLLLFVTI	0.5

* * *

Test system: control sera (pooled serum of ten healthy LUMC hospital workers; commercial negative donor pooled serum from the Dutch bloodbank)
Format: binding, human
parameter: Control serum Blood-bank linear peptides

sequence record	numeric readout
KKDKKKKTDEAQPLP	0.7
SGTWLTYHGAIKLDD	0.5
EAQPLPQRQKKQPTV	0.6
VTLLPAADMDDFSRQ	0.5
SRIGMEVTPSGTWLT	0.8
LPQRQKKQPTVTLLP	0.8
ASAFFGMSRIGMEVT	0.7
QRQKKQPTVTLLPAA	0.8
KTDEAQPLPQRQKKQ	0.7
WPQIAQFAPSASAFF	0.6
TYHGAIKLDDKDPQF	0.8
LLNKHIDAYKTFPPT	0.6

* * *

System: antibodies in sera from SARS patients (sera 1a, 1b, 2, 6, 37, 62, London, SARS-yellow, SARS-green)
Format: binding, human
Binding of serum 1a to linear peptides of protein M of SARS-CoV Urbani for assorted sequences
parameter: Binding of serum 1a to linear peptides of protein M of SARS-CoV Urbani

sequence record	numeric readout
SGFAAYNRYRIGNYK	0.8
LMESELVIGAVIIRG	0.7
NRFLYIIKLVFLWLL	0.7
NVPLRGTIVTRPLME	0.8
RSMWSFNPETNILLN	0.8
KEITVATSRTLSYYK	0.7
SMWSFNPETNILLNV	0.8
RGTIVTRPLMESELV	0.9
AIAMACIVGLMWLSY	0.7

* * *

Test system: antibodies in sera from SARS patients (sera 1a, 1b, 2, 6, 37, 62, London, SARS-yellow, SARS-green)
Assay type: binding, human
Parameters: unit not given here
parameter: Binding of serum 62 to looped/cyclic peptides of protein N of SARS-CoV Urbani

sequence record	result
QAFGRRGPEQTQGNF	0.3
QYNVTQAFGRRGPEQ	0.6
LTYHGAIKLDDKDPQ	0.3

* * *

Binding of a rabbit serum to linear peptides for assorted sequences
System: rabbit serum obtained by immunizing a rabbit with the SARS-CoV strain Frankfurt 1
Format: binding
Design: unit not given here
parameter: Binding of a rabbit serum to linear peptides

sequence record	numeric readout
KKVSTNLCTHSFRKK	0.3
ITAQPVKIDNASPAS	0.1
KSKNPLLYDANYFVC	0.1
SLPFGWLVIGVAFLA	0.4
QIQLSLLKVTAFQHQ	0.6
RFFTLGSITAQPVKI	1.7
SRVKNLNSSEGVPDL	0.7
LHSSSLTSLLKTHRM	0.2
DRHSGVKDYVVVHGY	0.1
YLYALIYFLQCINAC	0.1
THITMTTVYHITVSQ	0.7
YNSVTDTIVVTEGDG	0.1
KFTTSLSLHKLLQTL	0.2
LQASLPFGWLVIGVA	0.5
IVNVSLVKPTVYVYS	0.5
IPLQASLPFGWLVIG	0.1
TDTGIENATFFIFNK	0.1
FQFICNLLLLFVTIY	0.9
